System: BDF1 mice, P388 leukemia ip, median survival T/C
Test: NCI In Vivo Anticancer Drug Screen. Data for tumor model P388 Leukemia (intraperitoneal) in B6D2F1 (BDF1) mice
Conditions: endpoint: median survival time; dose: 400.0 mg/kg/injection; schedule: Q01DX009 (ip); vehicle: Klucel (hydroxypropylcellulose) (HPC)
Toxic doses and inconclusive results are not listed. How the source made its calls: active means survival T/C of 150% or more; inactive means T/C below 125% in these data.
Tick one outcome: T = active, F = inactive

What outcome does the record of this test show for "COc1ccc(C(=O)CC(=O)CC(=O)c2ccccc2)cc1" ? F

What outcome does the record of this test show for "Nc1c(Br)cc(Br)cc1Br" ? F

What outcome does the record of this test show for "O=[N+]([O-])c1cccc(/C=C/c2ccccc2)c1" ? F

What outcome does the record of this test show for "COc1ccc(OC)c(NC(=O)Nc2c(C)n(C)n(-c3ccccc3)c2=O)c1" ? F

What outcome does the record of this test show for C/C=C1\CCC2C(=C1C)CC1C2CC=C2CC(OC(C)=O)CCC21C (stereo unspecified) ? F

What outcome does the record of this test show for Cc1ccc(NCC2(/N=C/c3ccccc3)OC(CO)C(O)C2O)cc1 (stereo unspecified) ? T

What outcome does the record of this test show for CC1(CCBr)NC(=O)NC1=O (stereo unspecified) ? F

What outcome does the record of this test show for BrC1C2CC3C(C2)C13 (stereo unspecified) ? F

What outcome does the record of this test show for CSc1ncc2ncn(C3OC(CO)C(O)C3O)c2n1 (stereo unspecified) ? F

What outcome does the record of this test show for CCOC(=O)/C=C\c1c(OC)nc2ccccn2c1=O (tested in a mixture with another compound) ? F

What outcome does the record of this test show for "CCOC(=O)CS(=O)(=O)c1ccc(NC(C)=O)cc1" ? F

---

Provide the reported T/C of each item.
System: BDF1 mice, P388 leukemia ip, median survival T/C
Assay: NCI In Vivo Anticancer Drug Screen. Data for tumor model P388 Leukemia (intraperitoneal) in B6D2F1 (BDF1) mice
Settings: endpoint: median survival time; dose: 100.0 mg/kg/injection; schedule: Q04DX003 (ip); vehicle: other; higher = longer survival
Inconclusive results and toxic doses are left out.

T/C lookup needed for "COc1cccc(C(=O)CC(O)(C(F)(F)F)C(F)(F)F)c1" , thanks. 100 % of control

T/C lookup needed for "CCCCCCCC(=O)Nc1cc(C(F)(F)F)ccc1Cl" , thanks. 100 % of control

T/C lookup needed for "O=[N+]([O-])c1ccc(S(=O)(=O)Nc2ccc(-c3ccccc3)cc2)cc1" , thanks. 96 % of control

---

Test system: BDF1 mice, P388 leukemia ip, median survival T/C
Assay: NCI In Vivo Anticancer Drug Screen. Data for tumor model P388 Leukemia (intraperitoneal) in B6D2F1 (BDF1) mice
Settings: endpoint: median survival time; dose: 50.0 mg/kg/injection; schedule: Q04DX003 (ip); vehicle: water; higher = longer survival
Inconclusive results and toxic doses are left out.
PROPERTY: T/C

T/C lookup needed for "ClCCc1cnc[nH]1" , thanks. 105 % of control

T/C lookup needed for "CCCCCCCC(=O)NN" , thanks. 91 % of control

T/C lookup needed for "OCCN(CCO)c1cc(OCc2ccccc2)cc(OCc2ccccc2)c1" , thanks. 100 % of control

T/C lookup needed for "CC[N+](CC)(CC)CCCC[N+](CC)(CC)CC" , thanks. 104 % of control
